Entry source: paper PMC9082971

run-description: Solubility in the LLNA test vehicle
Assay type: physicochemical
conditions: acetone:olive oil (AOO) 16:1, organic solvent or mixture; AOO 16:1; precipitated from a 10% w/v solution
property-measured: solubility

Q: What value of measured solubility is listed for COc1cc([C@H]2OC[C@H]3[C@@H]2CO[C@@H]3c2ccc(OCC3CO3)c(OC)c2)ccc1OCC1CO1 (stereo partly shown) [PinoDGE, pinoresinol diglycidyl ether] ?
A: ≤ 170 mM

* * *

run-description: Solubility in the LLNA test vehicle
Type: physicochemical
conditions: acetone:olive oil (AOO) 4:1, organic solvent or mixture; AOO (4:1)
property-measured: solubility

Q: What value of measured solubility is listed for COc1cc([C@H]2OC[C@H]3[C@@H]2CO[C@@H]3c2ccc(OCC3CO3)c(OC)c2)ccc1OCC1CO1 (stereo partly shown) [PinoDGE, pinoresinol diglycidyl ether] ?
A: ≤ 110 mM

* * *

run-description: Cellular viability (MTT) in the KeratinoSens assay
Format: cell-based
conditions: human, KeratinoSens reporter keratinocytes, 50% reduction in cellular viability, read-out: Cytotoxicity IC50
property-measured: IC50 at 48 h (µM)
All answers are understood in µM, so give the number only.

compound | IC50 at 48 h (µM)
O=[N+]([O-])c1ccccc1OCC1CO1 (centres unmarked) [Compound 2, 2-((2-nitrophenoxy)methyl)oxirane] | 88

Query compound follows.
Q: What value of measured IC50 at 48 h is listed for COc1cc([C@H]2OC[C@H]3[C@@H]2CO[C@@H]3c2ccc(OCC3CO3)c(OC)c2)ccc1OCC1CO1 (some centres unmarked) [PinoDGE, pinoresinol diglycidyl ether] ?
A: 24
